target: α3β3γ2 GABAA/BzR (Homo sapiens, UniProt P18507+P34903); test: Competition binding to HEK cell membranes, α3β3γ2; design: expressed in transfected cells; details: Ki α3
PARAMETER_MEASURED: Ki (nM)
Write it as a number; the unit nM goes unstated.

A selection of reference data follows.
[
  {
    "MOLECULE": "C#Cc1ccc2[nH]c3cnc(C(=O)OCC(F)(F)F)cc3c2c1 [WY-B-26-2]",
    "UNIT": "nM",
    "Ki": 42.7
  },
  {
    "MOLECULE": "CC(C)(C)OC(=O)c1cc2c(cn1)[nH]c1ccc(C(C)(C)C)cc12 [CM-A82a]",
    "UNIT": "nM",
    "Ki": 24.5
  }
]

Now, please, on to the next molecule.
q: Please indicate recorded Ki of C#Cc1ccc2c(c1)C(=O)N(C)Cc1c(C(=O)OCC)ncn1-2 [RY-080 C17H15N3O3] measured with α3β3γ2 GABAA/BzR (Homo sapiens, UniProt P18507+P34903).
a: 25.8

---

target: α3β3γ2 GABAA/BzR (Homo sapiens, UniProt P18507+P34903); experiment: Competition binding to HEK cell membranes, α3β3γ2; set-up: expressed in transfected cells; conditions: read-out: Ki α3
Ki by entry:
Write it as a number; the unit nM goes unstated.

[
  {
    "COMPOUND": "C#Cc1ccc2c(c1)C(c1ccccc1F)=NCc1c(C(=O)OCC(F)(F)F)ncn1-2",
    "Ki, nM": 11.8
  }
]

q: Return Ki (reported value) for this compound: CCC(C)OC(=O)c1ncn2c1C1CCCN1C(=O)c1cc(F)ccc1-2 (stereo not shown)
a: 12

q: Return Ki (reported value) for this compound: CCOC(=O)c1ncn2c1CN=C(c1ccccc1F)c1cc(-c3ccco3)ccc1-2
a: 12.8

q: Return Ki (reported value) for this compound: CC[C@H](C)OC(=O)c1ncn2c1[C@@H]1CCCN1C(=O)c1cc(F)ccc1-2 [CM-B44 (ss)]
a: 12

---

target: α6β3γ2 GABAA/BzR (Homo sapiens, UniProt P18507+Q16445); assay: Competition binding to HEK cell membranes, α6β3γ2; parameters: expressed in transfected cells; settings: read-out: Ki α6
We label by threshold. Values of Ki strictly beneath 200 nM are true (1). Values of 200 nM and up are false (0).

[
  {
    "COMPOUND": "O=C(OCC(F)(F)F)c1ncn2c1CN=C(c1ccccc1F)c1cc(Br)ccc1-2",
    "QUALITATIVE_LABEL": "false (0)"
  },
  {
    "COMPOUND": "COc1ccc(-n2nc3c4cc(Cl)ccc4[nH]cc-3c2=O)cc1",
    "QUALITATIVE_LABEL": "true (1)"
  },
  {
    "COMPOUND": "CC[C@H](C)OC(=O)c1cc2c(cn1)[nH]c1ccccc12 [CM-A50 (S)]",
    "QUALITATIVE_LABEL": "false (0)"
  },
  {
    "COMPOUND": "CC[C@@H](C)OC(=O)c1cc2c(cn1)[nH]c1ccccc12 [CM-A49 (R)]",
    "QUALITATIVE_LABEL": "false (0)"
  },
  {
    "COMPOUND": "CC(C)(C)OC(=O)c1cc2c(cn1)[nH]c1ccc(-c3ccco3)cc12",
    "QUALITATIVE_LABEL": "false (0)"
  },
  {
    "COMPOUND": "O=C(OCC(F)(F)F)c1ncn2c1CN=C(c1ccccc1F)c1cc(-c3ccco3)ccc1-2",
    "QUALITATIVE_LABEL": "false (0)"
  }
]

q: Hello, is Ki of the following compound strictly smaller than 200 nM? Cc1nnc2n1-c1ccc(Br)cc1C(c1ccccc1Cl)=NC2 [DM-II-90 (C17H12N4BrCl)]
a: false (0)

q: Hello, is Ki of the following compound strictly smaller than 200 nM? C#Cc1ccc2c(c1)C(c1ccccc1F)=NCc1nnc(C)n1-2
a: false (0)

q: Hello, is Ki of the following compound strictly smaller than 200 nM? CN1Cc2c(C(=O)OC(C)(C)C)ncn2-c2ccc(O)cc2C1=O
a: true (1)

q: Hello, is Ki of the following compound strictly smaller than 200 nM? CCC(OC(=O)c1ncn2c1C1CCCN1C(=O)c1cc(Br)ccc1-2)C(F)(F)F (centres unmarked) [MMB-II-87]
a: false (0)

q: Hello, is Ki of the following compound strictly smaller than 200 nM? CCCC(=O)c1cc2c(cn1)[nH]c1ccc(F)cc12
a: false (0)

q: Hello, is Ki of the following compound strictly smaller than 200 nM? CCC(C)OC(=O)c1cc2c(cn1)[nH]c1ccccc12 (centres unmarked)
a: false (0)

q: Hello, is Ki of the following compound strictly smaller than 200 nM? CC(C)c1nc(-c2ncn3c2CN(C)C(=O)c2c(Cl)cccc2-3)no1 [FG8205, reference compound]
a: false (0)

q: Hello, is Ki of the following compound strictly smaller than 200 nM? CCCCc1cc2c(cn1)[nH]c1ccc(F)cc12
a: false (0)

q: Hello, is Ki of the following compound strictly smaller than 200 nM? C=Cc1ccc2c(c1)C(=O)N1CCC[C@H]1c1c(C(=O)OC(C)(C)C)ncn1-2
a: true (1)

q: Hello, is Ki of the following compound strictly smaller than 200 nM? O=C(OCC(Cl)(Cl)Cl)c1ncn2c1CN=C(c1ccccc1)c1cc(Br)ccc1-2
a: false (0)

q: Hello, is Ki of the following compound strictly smaller than 200 nM? C#Cc1ccc2c(c1)C(=O)N1CCC[C@H]1c1c(C(=O)OCC(F)(F)F)ncn1-2
a: true (1)

q: Hello, is Ki of the following compound strictly smaller than 200 nM? C#Cc1ccc2c(c1)C(c1ccccc1F)=NC(C)C(=O)N2C (centres unmarked)
a: true (1)

q: Hello, is Ki of the following compound strictly smaller than 200 nM? C#Cc1ccc2c(c1)C(c1ccccc1)=NCc1c(C(=O)OCC(F)(F)F)ncn1-2
a: false (0)

q: Hello, is Ki of the following compound strictly smaller than 200 nM? CCC(C)OC(=O)c1ncn2c1C1CCCN1C(=O)c1cc(F)ccc1-2 (centres unmarked)
a: false (0)

---

biological target: α1β3γ2 GABAA/BzR (Homo sapiens, UniProt P14867+P18507); assay: Competition binding to HEK cell membranes, α1β3γ2; set-up: expressed in transfected cells; settings: read-out: Ki α1
We label by threshold. Values of Ki strictly beneath 20 nM are TRUE. Values of 20 nM and up are FALSE.

Below are worked cases with known answers.
[
  {
    "COMPOUND": "CC(C)(C)OC(=O)c1cc2c(cn1)[nH]c1ccc(I)cc12",
    "QUALITATIVE_LABEL": "TRUE"
  },
  {
    "COMPOUND": "CCCCc1cc2c(cn1)[nH]c1ccc(F)cc12",
    "QUALITATIVE_LABEL": "TRUE"
  },
  {
    "COMPOUND": "O=C1CN=C(c2ccccc2F)c2cc(Br)ccc2N1",
    "QUALITATIVE_LABEL": "TRUE"
  }
]

q: Hello, is Ki of the following compound strictly smaller than 20 nM? CCOC(=O)c1ncn2c1C1CCN1C(=O)c1cc(OC)ccc1-2 (stereo not drawn)
a: FALSE

q: Hello, is Ki of the following compound strictly smaller than 20 nM? CC(C)(C)OC(=O)c1cc2c(cn1)[nH]c1ccc(F)cc12
a: TRUE

q: Hello, is Ki of the following compound strictly smaller than 20 nM? C[Si](C)(C)C#Cc1ccc2c(c1)C(c1ccccc1F)=NCC(=O)N2
a: FALSE

---

target: α5β3γ2 GABAA/BzR (Homo sapiens, UniProt P18507+P31644); test: Competition binding to HEK cell membranes, α5β3γ2; design: expressed in transfected cells; conditions: read-out: Ki α5
Ki by entry:
Write it as a number; the unit nM goes unstated.

A selection of reference data follows.
[
  {
    "COMPOUND": "c1ccc2c(c1)[nH]c1cnc3c4cccnc4[nH]c3c12 [LJD-III-15E]",
    "SYSTEM_UNDER_TEST": "α5β3γ2 GABAA/BzR (Homo sapiens, UniProt P18507+P31644)",
    "TEST_RESULT": 70.8
  },
  {
    "COMPOUND": "O=C(OCC(F)(F)F)c1ncn2c1CN=C(c1ccccc1F)c1cc(-c3ccco3)ccc1-2 [JYI-54]",
    "SYSTEM_UNDER_TEST": "α5β3γ2 GABAA/BzR (Homo sapiens, UniProt P18507+P31644)",
    "TEST_RESULT": 57
  }
]

q: Return Ki (reported value) for this compound: C#Cc1ccc2c(c1)C(c1ccccc1F)=NCc1c(C(=O)OCC(F)(F)F)ncn1-2 [JYI-59]
a: 11.5

q: Return Ki (reported value) for this compound: COc1ccc(-n2nc3c4cc(Cl)ccc4[nH]cc-3c2=O)cc1 [PZII-028]
a: 0.32

q: Return Ki (reported value) for this compound: CCOC(=O)c1cc2c(cn1)[nH]c1ccc(I)cc12 [CM-B01]
a: 286

q: Return Ki (reported value) for this compound: C#Cc1ccc2c(c1)C(c1ccccc1)=NCC(NC)=N2 [Hz148]
a: 256

q: Return Ki (reported value) for this compound: Cc1nnc2n1-c1ccc(C#C[Si](C)(C)C)cc1C(c1ccccc1F)=NC2 [JYI-72]
a: 11.5
